# target: Bromodomain-containing protein 4 (Homo sapiens)
# test: Inhibition of BRD4 in HEK293T cells
measure name: IC50 (nM)
Reply with just the number (in nM).

Problem: Find the measured IC50 of Cc1sc2c(c1C)C(c1ccc(Cl)cc1)=N[C@H](CC(=O)NCCCCCNC(=O)CN1CCOc3cc(N(CCC#N)C(=O)CCl)ccc31)c1nnc(C)n1-2 with Bromodomain-containing protein 4 (Homo sapiens) as test system.
Solution: 1400

---

# target: RAC-beta serine/threonine-protein kinase (Homo sapiens, UniProt P31751)
# Sequence (P31751 whole entry): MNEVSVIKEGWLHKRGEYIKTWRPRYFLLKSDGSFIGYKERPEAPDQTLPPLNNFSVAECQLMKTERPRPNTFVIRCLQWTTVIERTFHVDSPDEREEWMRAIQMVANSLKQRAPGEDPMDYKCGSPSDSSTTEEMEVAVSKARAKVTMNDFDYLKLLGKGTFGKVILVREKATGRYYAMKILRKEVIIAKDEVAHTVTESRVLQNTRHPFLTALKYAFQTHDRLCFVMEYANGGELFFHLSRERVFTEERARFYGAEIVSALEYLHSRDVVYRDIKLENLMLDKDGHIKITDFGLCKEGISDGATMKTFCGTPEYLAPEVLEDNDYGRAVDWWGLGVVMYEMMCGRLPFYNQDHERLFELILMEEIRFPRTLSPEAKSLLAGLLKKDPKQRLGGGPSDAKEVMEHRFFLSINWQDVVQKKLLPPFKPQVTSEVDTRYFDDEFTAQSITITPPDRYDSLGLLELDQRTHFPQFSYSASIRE
# test: Inhibition of AKT2 (unknown origin)
measure name: pIC50
# pIC50: negative log10 of molar concentration; output just the value

Problem: Identify the reported pIC50 for the following entry. Cc1ncsc1-c1ccc(C(C)NC(=O)C2CC(O)CN2C(=O)C(NC(=O)CCCCCCCCCCNC(=O)CCc2cccc(-c3ccc4nc(-c5cccnc5N)n(-c5ccc(C6(N)CCC6)cc5)c4n3)c2)C(C)(C)C)cc1 (stereo unspecified)
Solution: 7.05

---

# test: Stability in human plasma assessed as half life at 2 uM incubated for 120 mins by LC-MS/MS analysis
# Assay type: ADME, cell-free
measure name: half-life at 2 µM

Problem: For CN(c1ncccc1CNc1nc(Nc2ccc(N3CCN(CCCCCCC(=O)NCCNc4cccc5c4C(=O)N(C4CCC(=O)NC4=O)C5=O)CC3)cc2)ncc1C(F)(F)F)S(C)(=O)=O (stereo unspecified) , write its half-life at 2 µM.
Solution: > 3.25 h

---

# target: Epidermal growth factor receptor (Homo sapiens, UniProt P00533)
# Sequence (P00533 whole entry): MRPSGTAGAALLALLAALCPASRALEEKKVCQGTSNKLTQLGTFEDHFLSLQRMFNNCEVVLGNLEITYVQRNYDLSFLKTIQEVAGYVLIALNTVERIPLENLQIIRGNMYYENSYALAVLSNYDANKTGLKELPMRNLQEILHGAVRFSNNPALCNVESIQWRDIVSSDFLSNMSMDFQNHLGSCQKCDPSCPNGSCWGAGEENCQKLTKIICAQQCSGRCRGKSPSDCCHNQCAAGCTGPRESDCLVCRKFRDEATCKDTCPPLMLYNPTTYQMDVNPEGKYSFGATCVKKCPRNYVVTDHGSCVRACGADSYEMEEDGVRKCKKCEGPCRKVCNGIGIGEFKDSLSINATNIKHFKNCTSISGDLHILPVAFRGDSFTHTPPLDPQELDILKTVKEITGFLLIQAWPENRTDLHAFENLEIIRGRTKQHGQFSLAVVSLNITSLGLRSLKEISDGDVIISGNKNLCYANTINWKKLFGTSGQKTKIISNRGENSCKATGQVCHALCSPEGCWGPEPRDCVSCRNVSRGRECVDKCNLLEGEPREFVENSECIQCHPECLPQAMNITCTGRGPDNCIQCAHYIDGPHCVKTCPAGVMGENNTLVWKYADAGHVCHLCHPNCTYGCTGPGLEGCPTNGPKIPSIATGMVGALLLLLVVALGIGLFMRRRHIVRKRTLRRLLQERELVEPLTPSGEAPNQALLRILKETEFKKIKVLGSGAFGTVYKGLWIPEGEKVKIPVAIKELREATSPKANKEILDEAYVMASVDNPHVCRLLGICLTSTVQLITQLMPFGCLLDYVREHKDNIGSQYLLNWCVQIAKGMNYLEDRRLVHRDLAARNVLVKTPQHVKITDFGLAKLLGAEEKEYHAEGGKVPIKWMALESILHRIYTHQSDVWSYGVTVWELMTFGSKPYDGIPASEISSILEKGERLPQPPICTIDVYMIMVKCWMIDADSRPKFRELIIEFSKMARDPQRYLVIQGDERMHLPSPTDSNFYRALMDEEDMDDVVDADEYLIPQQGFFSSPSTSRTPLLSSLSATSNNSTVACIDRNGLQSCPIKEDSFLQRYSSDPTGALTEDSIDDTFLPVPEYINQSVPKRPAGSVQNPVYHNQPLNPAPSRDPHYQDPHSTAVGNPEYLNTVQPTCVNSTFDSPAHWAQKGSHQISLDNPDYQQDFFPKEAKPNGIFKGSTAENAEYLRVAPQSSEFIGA
# test: Inhibition of wild-type EGFR in human A-431 cells
# Format: cell-based
pIC50: −log10 of the molar value.
measure name: pIC50

Problem: For the compound Cc1ncsc1-c1ccc(CNC(=O)C2CC(O)CN2C(=O)C(NC(=O)CCCCCCCCCCn2cc(COc3cc4ncnc(Nc5ccc(F)c(Cl)c5)c4cc3NC(=O)/C=C/CN3CCCCC3)nn2)C(C)(C)C)cc1 (stereo unspecified) , give its measured pIC50 value.
Solution: < 4.70
